Reference for the values: patent US11078198B2

molecular target: human FXR (Homo sapiens); construct: expressed in transfected cells; host or cells: HEK293 cells stably carrying a 5xGal4-response-element firefly luciferase reporter, transiently transfected with pcDNA3.1-Gal4-FXR; experiment: transient human FXR/Gal4-luciferase reporter assay; type: cell-based; conditions: Gal4-hFXR transfected HEK293 reporter cells; relative to 8 μM GW-4064
pEC50: −log10 of the molar value.
# binarize pEC50: threshold 7 inclusive, high side true, low side false

compound="O=C(O)c1cc(F)c2nc(N3CCC4(C=C(c5c(-c6c(F)cncc6F)noc5C5CC5)C4)CC3)sc2c1 [Example 68]" class_assignment=false
compound="O=C(O)c1cc2ccc(N3CCC4(C=C(c5c(-c6cnccc6C(F)(F)F)noc5C5CC5)C4)CC3)cc2cn1 [Example 160]" class_assignment=false
compound="O=C(O)c1cc(C(F)(F)F)cc2nc(N3CCC4(C=C(c5c(-c6c(Cl)cncc6Cl)noc5C5CC5)C4)CC3)ccc12 [Example 60]" class_assignment=true
compound="CCOc1cc(C(=O)O)nc2ccc(N3CCC4(C=C(c5c(-c6c(Cl)cncc6Cl)noc5C5CC5)C4)CC3)cc12 [Example 107]" class_assignment=true
compound="O=C(O)c1cc2ccc(N3CCC4(C=C(c5c(-c6c(Cl)cccc6Cl)noc5C5CC5)C4)CC3)cc2cn1 [Example 129]" class_assignment=false
compound="O=C(O)c1ccc(N2CCC3(C=C(c4c(-c5c(Cl)cc(F)cc5Cl)noc4C4CC4)C3)CC2)nc1 [Example 67]" class_assignment=false
compound="O=C(O)c1ccc2cc(N3CCC4(C=C(c5c(-c6cnccc6C(F)(F)F)noc5C5CC5)C4)CC3)ccc2n1 [Example 154]" class_assignment=false
compound="O=C(O)COc1cnc2ccc(N3CCC4(C=C(c5c(-c6c(Cl)cccc6Cl)noc5C5CC5)C4)CC3)cc2n1 [Example 130]" class_assignment=false
compound="Cn1cc(C(=O)O)c2ccc(N3CCC4(C=C(c5c(-c6c(Cl)cccc6Cl)noc5C5CC5)C4)CC3)nc21 [Example 7]" class_assignment=true
compound="O=C(O)c1ccc2nc(N3CCC4(C=C(c5c(-c6ccccc6C(F)(F)F)noc5C5CC5)C4)CC3)cnc2c1 [Example 101]" class_assignment=true
compound="O=C(O)c1cc2ccc(N3CCC4(C=C(c5c(-c6ccncc6Cl)noc5C5CC5)C4)CC3)cc2nn1 [Example 80]" class_assignment=false
compound="CC(C)c1onc(-c2c(Cl)cncc2Cl)c1C1=CC2(CCN(c3nc4c(F)cc(C(=O)O)cc4s3)CC2)C1 [Example 52]" class_assignment=true
compound="O=C(O)c1cc2ccc(N3CCC4(C=C(c5c(-c6ccccc6C(F)(F)F)noc5C5CC5)C4)CC3)cc2cn1 [Example 159]" class_assignment=false
compound="CCOc1cc(C(=O)O)nc2ccc(N3CCC4(C=C(c5c(-c6ccccc6C(F)(F)F)noc5C5CC5)C4)CC3)cc12 [Example 72]" class_assignment=true
compound="O=C(O)c1cc(C(F)(F)F)c2cc(N3CCC4(C=C(c5c(C6CCCCC6)noc5C5CC5)C4)CC3)ccc2n1 [Example 98]" class_assignment=false
compound="O=C(O)c1ccc2cc(N3CCC4(C=C(c5c(-c6cccnc6C(F)(F)F)noc5C5CC5)C4)CC3)ccc2n1 [Example 153]" class_assignment=false
compound="Cc1cc(C(=O)O)cc2sc(N3CCC4(C=C(c5c(-c6c(Cl)cccc6Cl)noc5C5CC5)C4)CC3)nc12 [Example 45]" class_assignment=true
compound="COc1cc(C(=O)O)c2nc(N3CCC4(C=C(c5c(-c6c(Cl)cncc6Cl)noc5C5CC5)C4)CC3)sc2c1 [Example 70]" class_assignment=false
compound="Cc1cccc(Cl)c1-c1noc(C2CC2)c1C1=CC2(CCN(c3ccc4cc(C(=O)O)nnc4c3)CC2)C1 [Example 57]" class_assignment=false

###

Biological target: UniProt:Q96RI1
Sequence (Q96RI1 262-486 limits assumed): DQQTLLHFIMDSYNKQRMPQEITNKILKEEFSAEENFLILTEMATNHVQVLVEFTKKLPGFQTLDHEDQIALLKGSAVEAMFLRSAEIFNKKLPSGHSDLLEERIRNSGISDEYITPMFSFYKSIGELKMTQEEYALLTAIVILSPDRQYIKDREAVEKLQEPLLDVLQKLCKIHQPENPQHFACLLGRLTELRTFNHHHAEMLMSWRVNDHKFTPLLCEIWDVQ
Experiment: transient human FXR/Gal4-luciferase reporter assay
Conditions: Gal4-hFXR transfected HEK293 reporter cells; relative to 8 μM GW-4064
pEC50: −log10 of the molar value.
Please assign a class to every record based on measured pEC50, with ranges band A = under 6, band B = from 6 up to 7, band C = 7 and over

compound="O=C(O)c1cc2ccc(N3CCC4(C=C(c5c(-c6ncccc6Cl)noc5C5CC5)C4)CC3)cc2cn1 [Example 161]" class_assignment="band A"
compound="O=C(O)c1ccc2cc(N3CCC4(C=C(c5c(-c6ccncc6Cl)noc5C5CC5)C4)CC3)ccc2n1 [Example 150]" class_assignment="band A"
compound="O=C(O)c1cc(F)c2nc(N3CCC4(C=C(c5c(C(F)F)cnn5-c5ccccc5C(F)(F)F)C4)CC3)sc2c1 [Example 213]" class_assignment="band C"
compound="CS(=O)(=O)NC(=O)c1cc(OC(F)F)c2cc(N3CCC4(C=C(c5c(-c6cccnc6C(F)(F)F)noc5C5CC5)C4)CC3)ccc2n1 [Example 192]" class_assignment="band B"
compound="CC(C)Oc1cc(C(=O)O)nc2ccc(N3CCC4(C=C(c5c(-c6c(Cl)cc(F)cc6Cl)noc5C5CC5)C4)CC3)cc12 [Example 110]" class_assignment="band C"
compound="O=C(O)c1ccc2nc(N3CCC4(C=C(c5c(-c6c(Cl)cncc6Cl)noc5C5CC5)C4)CC3)sc2n1 [Example 62]" class_assignment="band C"
compound="CC1(c2onc(-c3c(Cl)cncc3Cl)c2C2=CC3(CCN(c4ccc5nc(C(=O)O)cc(C(F)(F)F)c5c4)CC3)C2)CC1 [Example 94]" class_assignment="band B"
compound="CC(C)Oc1cc(C(=O)O)nc2ccc(N3CCC4(C=C(c5c(-c6c(Cl)cncc6Cl)noc5C5CC5)C4)CC3)cc12 [Example 111]" class_assignment="band C"
compound="O=C(O)c1cnc(N2CCC3(C=C(c4c(-c5ccccc5C(F)(F)F)noc4C4CC4)C3)CC2)cc1C(F)(F)F [Example 163]" class_assignment="band B"
compound="O=C(O)c1cc2ccc(N3CCC4(C=C(c5c(-c6c(F)cccc6F)noc5C5CC5)C4)CC3)cc2cn1 [Example 162]" class_assignment="band A"
compound="O=C(O)c1cc(OC(F)F)c2cc(N3CCC4(C=C(c5c(-c6cnccc6C(F)(F)F)noc5C5CC5)C4)CC3)ccc2n1 [Example 75]" class_assignment="band C"
compound="Cn1c(C(=O)O)cc2ccc(N3CCC4(C=C(c5c(-c6c(Cl)cccc6Cl)noc5C5CC5)C4)CC3)cc21 [Example 128]" class_assignment="band B"
compound="Cn1cc(C(=O)O)c2ccc(N3CCC4(C=C(c5c(C(F)F)cnn5-c5ccccc5C(F)(F)F)C4)CC3)cc21 [Example 219]" class_assignment="band B"
compound="Cc1nc(C(=O)O)c2ccc(N3CCC4(C=C(c5c(-c6c(Cl)cccc6Cl)noc5C5CC5)C4)CC3)cn12 [Example 127]" class_assignment="band B"
compound="O=C(O)c1cc(C(F)(F)F)c2cc(N3CCC4(C=C(c5c(-c6cccnc6C(F)(F)F)noc5C5CC5)C4)CC3)ccc2n1 [Example 92]" class_assignment="band B"
compound="Cn1nc(C(=O)O)c2ccc(N3CCC4(C=C(c5c(-c6ccccc6C(F)(F)F)noc5C5CC5)C4)CC3)cc21 [Example 164]" class_assignment="band B"
compound="COc1cc(C(=O)O)cc2sc(N3CCC4(C=C(c5c(-c6c(Cl)cncc6Cl)noc5C5CC5)C4)CC3)nc12 [Example 59]" class_assignment="band C"
compound="COc1cc(N2CCC3(C=C(c4c(-c5c(Cl)cncc5Cl)noc4C4CC4)C3)CC2)ncc1C(=O)O [Example 76]" class_assignment="band A"

###

pEC50 values for the molecules below.
Target: UniProt:Q96RI1
Sequence (Q96RI1 262-486 limits assumed): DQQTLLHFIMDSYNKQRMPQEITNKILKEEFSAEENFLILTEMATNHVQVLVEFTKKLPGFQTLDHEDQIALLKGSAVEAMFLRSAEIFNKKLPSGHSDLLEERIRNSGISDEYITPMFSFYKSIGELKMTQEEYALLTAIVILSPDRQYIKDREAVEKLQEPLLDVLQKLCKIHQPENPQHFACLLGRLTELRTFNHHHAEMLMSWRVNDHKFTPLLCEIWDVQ
Experiment: transient human FXR/Gal4-luciferase reporter assay
Settings: Gal4-hFXR transfected HEK293 reporter cells; relative to 8 μM GW-4064
pEC50: −log10 of the molar value.
parameter: pEC50

molecule="COc1ccc(C(=O)O)c2ccc(N3CCC4(C=C(c5c(-c6c(Cl)cncc6Cl)noc5C5CC5)C4)CC3)nc12 [Example 64]" tested_target=UniProt:Q96RI1 numeric_result=7.31
molecule="Cc1c(N2CCC3(C=C(c4c(-c5c(Cl)cccc5Cl)noc4C4CC4)C3)CC2)ccc2cc(C(=O)O)cnc12 [Example 132]" tested_target=UniProt:Q96RI1 numeric_result=6.02
molecule="O=C(O)c1ccn2nc(N3CCC4(C=C(c5c(-c6c(Cl)cccc6Cl)noc5C5CC5)C4)CC3)ncc12 [Example 123]" tested_target=UniProt:Q96RI1 numeric_result=7.40
molecule="O=C(O)c1cnc(N2CCC3(C=C(c4c(-c5c(Cl)cccc5Cl)noc4C4CC4)C3)CC2)cn1 [Example 19]" tested_target=UniProt:Q96RI1 numeric_result=6.96
